- TARGET OR SYSTEM: recombinant tau proteins (human Tau, heparin-fiberized) (Homo sapiens, UniProt P10636)
- Sequence (P10636 whole entry): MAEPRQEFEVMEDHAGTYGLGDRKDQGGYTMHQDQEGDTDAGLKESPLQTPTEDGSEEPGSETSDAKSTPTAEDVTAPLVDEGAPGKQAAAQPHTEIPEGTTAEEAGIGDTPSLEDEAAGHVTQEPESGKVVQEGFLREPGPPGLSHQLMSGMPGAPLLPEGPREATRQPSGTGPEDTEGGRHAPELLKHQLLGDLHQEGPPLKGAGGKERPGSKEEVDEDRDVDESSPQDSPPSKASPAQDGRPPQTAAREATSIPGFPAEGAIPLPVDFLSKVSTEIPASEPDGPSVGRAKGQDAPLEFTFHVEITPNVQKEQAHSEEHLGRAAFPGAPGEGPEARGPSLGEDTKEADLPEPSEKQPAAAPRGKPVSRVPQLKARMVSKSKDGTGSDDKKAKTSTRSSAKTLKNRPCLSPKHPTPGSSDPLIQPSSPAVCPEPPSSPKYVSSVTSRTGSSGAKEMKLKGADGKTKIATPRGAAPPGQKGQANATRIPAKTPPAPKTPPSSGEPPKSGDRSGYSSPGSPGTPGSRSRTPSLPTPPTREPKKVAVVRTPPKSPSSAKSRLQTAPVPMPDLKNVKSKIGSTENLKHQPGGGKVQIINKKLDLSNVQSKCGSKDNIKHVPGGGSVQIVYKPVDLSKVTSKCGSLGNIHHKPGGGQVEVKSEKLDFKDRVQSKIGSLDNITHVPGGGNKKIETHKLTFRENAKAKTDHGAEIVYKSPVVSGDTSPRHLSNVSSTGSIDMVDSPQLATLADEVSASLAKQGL
- TEST METHOD NOTES: Fluorescence quantitative Tau binding assay in vitro
- MEASUREMENT CONTEXT: 0.04 uM fiberized recombinant tau, 30 mM Tris pH 7.5, 1 h, fluorometric saturation curve
Kd listing for selected compounds.

Known results for compounds:
COMPOUND	Kd
CN(C)c1ccc(-c2ccc(-c3nc4ccncc4n3CCF)cc2)cn1	3500 nM
CNc1ccc(-c2ccc(-c3cc4ccnc(O)c4[nH]3)cc2)cn1	250 nM
CNc1ncc(-c2cc(F)c(-c3nc4ccc(N)cc4s3)cn2)cn1	1450 nM

*Q* What Kd value was documented for this compound, `CNc1ccc(-c2ccc(-c3cc4cc(F)ncc4[nH]3)cc2)cn1` ?
*A* 990 nM

*Q* Do the same for CN(C)c1ccc(-c2ccc(-c3nc4ccc(NCC(O)CF)cc4s3)c(F)n2)cn1 (centres unmarked) please
*A* 170 nM

*Q* Do the same for `Nc1ccc2nc(-c3ccc(-c4ccc(NCCF)nc4)cc3)sc2c1` please
*A* 800 nM

*Q* Do the same for `COc1ccc(-c2ccc(-c3cc4ccn(CCO)cc-4n3)cc2)cc1` please
*A* 340 nM

*Q* Do the same for CNc1ccc(-c2ccc(-c3cn4cc(NCC(O)CF)ccc4n3)cc2)cn1 (centres unmarked) please
*A* 370 nM

*Q* Do the same for `CNc1ccc(-c2ccc(-c3cc4ccncc4[nH]3)cc2)c(F)n1` please
*A* 690 nM

*Q* Do the same for `Nc1ccc(-c2ccc(-c3cc4cnccc4[nH]3)cc2)cc1F` please
*A* 540 nM

*Q* Do the same for `CNc1ccc(-c2ccc(-c3cc4ccncc4[nH]3)nc2F)cn1` please
*A* 940 nM

*Q* Do the same for CN(C)c1ccc(-c2ccc(-c3cc4ccn(CC(O)CF)cc-4n3)cc2)cn1 (centres unmarked) please
*A* 280 nM

*Q* Do the same for `CNc1ncc(-c2ccc(-c3nc4ccc(N)cc4s3)c(F)n2)cn1` please
*A* > 10000 nM

*Q* Do the same for `CNc1ccc(-c2ccc(-c3cc4ccncc4[nH]3)c(F)n2)cn1` please
*A* 2700 nM

*Q* Do the same for CN(C)c1ccc(-c2ccc(-c3cn4cc(OCC(O)CF)ccc4n3)cc2)cn1 (centres unmarked) please
*A* 270 nM

*Q* Do the same for `Nc1ccc(-c2ccc(-c3nc4ccncc4o3)cc2)cn1` please
*A* 90 nM

----------
Fluorescent binding Thread listing for selected compounds.
- Test system: tau aggregates (tangles/threads) in temporal cortex sections of an AD brain
- TEST METHOD NOTES: Histological examination by fluorescence staining of AD brain sections
- Assay type: binding, human
- MEASUREMENT CONTEXT: score for threads, 0.001% (W/V) compound in 50% ethanol, 30 min, relative to PBB3
// no unit string in output, number only

Known results for compounds:
COMPOUND	Fluorescent binding Thread
Nc1ccc2nc(-c3ccc(-c4ccc(NCCF)nc4)cc3)sc2c1 [Compound I]	1.5
CNc1ccc(-c2ccc(-c3cc4cnccc4[nH]3)cc2)cn1 [Compound M]	2
CNc1ccc(-c2ccc(-c3cc4ccnc(O)c4[nH]3)cc2)cn1 [Compound C]	1.5

*Q* What Fluorescent binding Thread value was documented for this compound, Nc1ccc(-c2ccc(-c3cc4cnccc4[nH]3)cc2)cc1F [Compound L] ?
*A* 1.5

*Q* Do the same for CNc1ccc(-c2ccc(-c3cn4cc(NCC(O)CF)ccc4n3)cc2)cn1 (stereo not shown) [Compound P] please
*A* 0

*Q* Do the same for COc1ccc2nc(-c3ccc(-c4ccc(N(C)C)nc4F)cc3)cn2c1 [Compound Q] please
*A* 0.5

*Q* Do the same for CNc1ccc(-c2ccc(-c3cn4cc(OCC(O)CF)ccc4n3)cc2)cn1 (stereo not shown) [Compound N] please
*A* 0

*Q* Do the same for CN(C)c1ccc(-c2ccc(-c3cc4ccn(CC(O)CF)cc-4n3)cc2)cn1 (stereo not shown) [Compound G] please
*A* 0.5

----------
- Tested on: tau aggregates (tangles/threads) in temporal cortex sections of an AD brain
- TEST METHOD NOTES: Histological examination by fluorescence staining of AD brain sections
- Assay type: binding, human
- MEASUREMENT CONTEXT: score for tangles, 0.001% (W/V) compound in 50% ethanol, 30 min, relative to PBB3
OBSERVABLE: Fluorescent binding Tangle

COMPOUND	TARGET OR SYSTEM	TEST RESULT
Nc1cccc(-c2ccc(-c3cc4ccncc4[nH]3)cc2)c1 [Compound A]	tau aggregates (tangles/threads) in temporal cortex sections of an AD brain	2/2
CNc1ccc(-c2ccc(-c3nc4ccc(NCC(O)CF)cc4s3)cc2)cn1 (centres unmarked) [Compound J]	tau aggregates (tangles/threads) in temporal cortex sections of an AD brain	3/3
CNc1ccc(-c2cnc(-c3cc4ccncc4[nH]3)cc2F)cn1 [Compound T]	tau aggregates (tangles/threads) in temporal cortex sections of an AD brain	2.5/2.5
CNc1ncc(-c2cc(F)c(-c3nc4ccc(N)cc4s3)cn2)cn1 [Compound Z]	tau aggregates (tangles/threads) in temporal cortex sections of an AD brain	3/3

Consider now this further compound.
*Q* What Fluorescent binding Tangle value was documented for this compound, CNc1ccc(-c2ccc(-c3cc4cc(F)ncc4[nH]3)cc2)cn1 [Compound B] ?
*A* 3/3

----------
- Test system: tau aggregates (tangles/threads) in temporal cortex sections of an AD brain
- TEST METHOD NOTES: Histological examination by fluorescence staining of AD brain sections
- Format: binding, human
- MEASUREMENT CONTEXT: score for tangles, 0.001% (W/V) compound in 50% ethanol, 30 min, relative to PBB3
Fluorescent binding Tangle listing for selected compounds.
// no unit string in output, number only

COMPOUND	Fluorescent binding Tangle
COc1ccc2nc(-c3ccc(-c4ccc(N(C)C)nc4F)cc3)cn2c1	1

Consider now this further compound.
*Q* What Fluorescent binding Tangle value was documented for this compound, CNc1ccc(-c2ccc(-c3cn4cc(OCC(O)CF)ccc4n3)cc2)cn1 (stereo not drawn) ?
*A* 0.5

----------
- TARGET OR SYSTEM: recombinant tau proteins (human Tau, heparin-fiberized) (Homo sapiens)
- TEST METHOD NOTES: Fluorescence quantitative Tau binding assay in vitro
- MEASUREMENT CONTEXT: 0.04 uM fiberized recombinant tau, 30 mM Tris pH 7.5, 1 h, fluorometric saturation curve
OBSERVABLE: Kd (nM)
Give the value in nM but do not write nM after it.

COMPOUND	UNIT ABBREV	Kd
CNc1ccc(-c2ccc(-c3cn4cc(OCC(O)CF)ccc4n3)cc2)cn1 (stereo not shown)	nM	260

*Q* What Kd value was documented for this compound, CNc1ccc(-c2ccc(-c3nc4ccc(NCC(O)CF)cc4s3)nc2)cn1 (stereo not shown) ?
*A* 3570

*Q* Do the same for `COc1ccc2nc(-c3ccc(-c4ccc(N(C)C)nc4)nc3F)cn2c1` please
*A* 1510

*Q* Do the same for `CNc1ccc(-c2ccc(-c3cc4cnccc4[nH]3)cc2)cn1` please
*A* 2630

----------
- Tested on: tau aggregates (tangles/threads) in temporal cortex sections of an AD brain
- TEST METHOD NOTES: Histological examination by fluorescence staining of AD brain sections
- Assay type: binding, human
- MEASUREMENT CONTEXT: score for threads, 0.001% (W/V) compound in 50% ethanol, 30 min, relative to PBB3
Fluorescent binding Thread listing for selected compounds.

COMPOUND	Fluorescent binding Thread
CNc1ccc(-c2ccc(-c3cc4ccncc4[nH]3)nc2F)cn1	3/3
CNc1ncc(-c2cc(F)c(-c3nc4ccc(N)cc4s3)cn2)cn1	3/3
CNc1ccc(-c2ccc(-c3nc4ccc(NCC(O)CF)cc4s3)cc2)cn1 (centres unmarked)	3/3

*Q* What Fluorescent binding Thread value was documented for this compound, `CNc1ccc(-c2cnc(-c3cc4ccncc4[nH]3)cc2F)cn1` ?
*A* 2.5/2.5

*Q* Do the same for CN(C)c1ccc(-c2ccc(-c3cn4cc(OCC(O)CF)ccc4n3)cc2)cn1 (centres unmarked) please
*A* 1.5/1.5

*Q* Do the same for `CNc1ccc(-c2ccc(-c3cc4cc(F)ncc4[nH]3)cc2)cn1` please
*A* 3/3

*Q* Do the same for CNc1ccc(-c2ccc(-c3nc4ccc(NCC(O)CF)cc4s3)nc2)cn1 (centres unmarked) please
*A* 2.5/2.5

*Q* Do the same for `CNc1ccc(-c2ccc(-c3cc4ccncc4[nH]3)cc2)c(F)n1` please
*A* 3/3

*Q* Do the same for `CNc1ccc(-c2ccc(-c3cc4ccncc4[nH]3)c(F)n2)cn1` please
*A* 3/3

*Q* Do the same for `CNc1ccc(-c2cc(F)c(-c3cc4ccncc4[nH]3)cn2)cn1` please
*A* 3/3

*Q* Do the same for `Nc1cccc(-c2ccc(-c3cc4ccncc4[nH]3)cc2)c1` please
*A* 2/2
